Origin of the recorded values: paper PMC9643865

# test summary: Pharmacokinetic study in brain and plasma after oral dosing, LC-MS/MS
# Format: in vivo, ICR mice
# applied conditions: mouse; 10 mg/kg oral, female ICR mice, brain; read-out: maximum concentration (Cmax) in the brain
reported metric: Cmax (ng/g)
Number only, in ng/g; omit the unit.

Prompt line: Dear colleague, I am looking for the recorded Cmax of the following compound: CN1CCc2cc3c(cc2C(=O)Cc2c(Br)cc4c(c2C1)OCO4)OCO3
Response line: 425

----------
# tested system: HDAC6 (Homo sapiens)
# Sequence (Q9UBN7 1-1215): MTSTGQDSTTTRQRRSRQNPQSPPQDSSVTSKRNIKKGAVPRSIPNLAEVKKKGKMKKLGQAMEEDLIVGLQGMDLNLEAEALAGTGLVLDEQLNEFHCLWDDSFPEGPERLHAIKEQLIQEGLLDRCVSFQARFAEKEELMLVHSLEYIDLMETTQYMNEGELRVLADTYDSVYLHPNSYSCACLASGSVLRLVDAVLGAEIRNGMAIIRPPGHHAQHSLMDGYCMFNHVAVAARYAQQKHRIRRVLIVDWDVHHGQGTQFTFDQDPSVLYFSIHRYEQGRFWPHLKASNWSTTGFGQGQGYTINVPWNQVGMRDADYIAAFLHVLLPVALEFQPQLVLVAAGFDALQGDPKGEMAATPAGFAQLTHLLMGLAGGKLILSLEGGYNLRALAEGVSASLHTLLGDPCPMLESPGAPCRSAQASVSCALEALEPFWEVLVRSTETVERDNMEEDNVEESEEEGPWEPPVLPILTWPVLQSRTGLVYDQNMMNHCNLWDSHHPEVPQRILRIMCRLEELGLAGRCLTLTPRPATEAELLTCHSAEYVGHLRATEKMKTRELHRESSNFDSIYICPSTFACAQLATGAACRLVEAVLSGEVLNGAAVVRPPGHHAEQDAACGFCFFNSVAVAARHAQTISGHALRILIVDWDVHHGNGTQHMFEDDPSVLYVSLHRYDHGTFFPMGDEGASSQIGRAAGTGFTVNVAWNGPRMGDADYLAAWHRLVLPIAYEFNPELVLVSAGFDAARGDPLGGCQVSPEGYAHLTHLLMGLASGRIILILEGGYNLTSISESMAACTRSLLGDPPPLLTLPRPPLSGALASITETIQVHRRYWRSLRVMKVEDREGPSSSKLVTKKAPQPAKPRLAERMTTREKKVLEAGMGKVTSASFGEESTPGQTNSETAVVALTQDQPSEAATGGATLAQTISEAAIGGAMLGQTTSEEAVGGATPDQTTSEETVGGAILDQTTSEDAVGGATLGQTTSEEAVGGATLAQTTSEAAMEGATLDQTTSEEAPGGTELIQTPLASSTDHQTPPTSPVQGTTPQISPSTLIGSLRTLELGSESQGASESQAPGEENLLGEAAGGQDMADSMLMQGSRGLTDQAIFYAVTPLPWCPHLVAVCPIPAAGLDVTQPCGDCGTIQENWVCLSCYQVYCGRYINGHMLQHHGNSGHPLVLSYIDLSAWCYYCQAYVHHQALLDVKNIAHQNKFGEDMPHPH
reported metric: pIC50
Note: pIC50 values are expressed as the negative base-10 logarithm of concentration in M.

Prompt line: Endpoint output: pIC50 of CN1CCc2cc3c(cc2C(=O)Cc2ccc4c(c2C1)OCO4)OCO3 [PRO, Protopine] . Value?
Response line: 5.63
